# assayText: Liver microsome stability, rhesus monkey
# Type: in vitro ADME
# measurementContext: liver microsomes, read-out: Liver Microsome Stability (t1/2)
Quick list: half-life per entry.
measureName: half-life (h)

compound: CS(=O)(=O)Nc1cccc2c1cnn2C(CC(F)F)(C(N)=O)c1ccc(C(F)(F)F)cc1 (single isomer, unassigned) [Compound 46]
measureName: half-life
unitsText: h
reported: 1.53
--
compound: CC(O)C(CC(F)F)(c1ccc(C(F)(F)F)cc1)n1ncc2c(NS(C)(=O)=O)cccc21 (single isomer, unassigned) [Compound 37]
measureName: half-life
unitsText: h
reported: 2.05
--
compound: CCC(c1ccc(C(F)(F)F)cc1)(C(C)O)n1ncc2c(NS(C)(=O)=O)cc(F)cc21 (single isomer, unassigned) [Compound 31]
measureName: half-life
unitsText: h
reported: 1.12

* * *

# assaySystem: full-length human Mineralocorticoid Receptor (MR) (Homo sapiens)
# Construct: host or cells: PathHunter CHO-K1 MR cells
# Sequence (P08235 whole entry): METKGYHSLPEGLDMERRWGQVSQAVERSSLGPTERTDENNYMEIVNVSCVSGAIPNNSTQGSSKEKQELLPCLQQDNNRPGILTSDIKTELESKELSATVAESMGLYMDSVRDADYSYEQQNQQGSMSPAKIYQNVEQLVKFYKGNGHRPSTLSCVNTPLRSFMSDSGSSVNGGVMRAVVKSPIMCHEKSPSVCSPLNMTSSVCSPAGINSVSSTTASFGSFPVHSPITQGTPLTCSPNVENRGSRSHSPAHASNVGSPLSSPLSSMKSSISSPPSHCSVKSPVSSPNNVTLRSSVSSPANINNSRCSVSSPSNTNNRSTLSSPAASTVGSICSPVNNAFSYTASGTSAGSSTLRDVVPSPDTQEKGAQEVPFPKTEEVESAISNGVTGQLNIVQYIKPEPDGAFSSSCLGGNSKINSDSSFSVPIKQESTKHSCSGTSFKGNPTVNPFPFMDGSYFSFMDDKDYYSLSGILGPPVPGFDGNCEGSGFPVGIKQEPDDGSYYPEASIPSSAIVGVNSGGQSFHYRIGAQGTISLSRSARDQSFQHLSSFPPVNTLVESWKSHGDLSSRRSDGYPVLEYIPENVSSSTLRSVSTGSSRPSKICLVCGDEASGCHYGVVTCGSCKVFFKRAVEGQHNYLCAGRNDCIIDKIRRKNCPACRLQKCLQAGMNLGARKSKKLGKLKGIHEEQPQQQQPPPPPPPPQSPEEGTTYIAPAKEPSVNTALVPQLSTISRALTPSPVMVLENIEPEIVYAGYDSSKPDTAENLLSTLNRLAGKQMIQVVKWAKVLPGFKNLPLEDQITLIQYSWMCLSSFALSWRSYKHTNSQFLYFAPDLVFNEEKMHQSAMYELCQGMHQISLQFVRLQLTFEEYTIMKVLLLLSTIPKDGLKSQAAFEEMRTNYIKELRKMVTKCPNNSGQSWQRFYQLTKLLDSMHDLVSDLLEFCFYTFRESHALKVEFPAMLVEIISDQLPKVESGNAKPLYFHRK
# assayText: human MR NH Pro assay (PathHunter Protein:Protein interaction assay), MR antagonism
# Format: cell-based
# measurementContext: IP = inflection point of the dose-response curve; CHO-K1 cells overexpressing human MR, aldosterone about 0.3 nM to about 1 nM, 6 hours at 37° C.

compound: CCC(O)C(CC(F)F)(c1ccc(C(F)(F)F)cc1)n1ncc2c(NS(=O)(=O)CC)cccc21 (single isomer, unassigned) [Compound 56]
assaySystem: full-length human Mineralocorticoid Receptor (MR) (Homo sapiens)
unitsText: nM
IC50: 10
//
compound: CCC(O)C(CC)(c1ccc(C(F)(F)F)cc1)n1ncc2c(NS(C)(=O)=O)cccc21 (single isomer, unassigned) [Compound 9]
assaySystem: full-length human Mineralocorticoid Receptor (MR) (Homo sapiens)
unitsText: nM
IC50: 4
//
compound: CS(=O)(=O)Nc1cccc2c1cnn2C(CO)(CC(F)F)c1ccc(C(F)(F)F)cc1 (single isomer, unassigned) [Compound 44]
assaySystem: full-length human Mineralocorticoid Receptor (MR) (Homo sapiens)
unitsText: nM
IC50: 539
//
compound: CCC(O)C(CC)(c1ccc(Br)cc1)n1ncc2c(NS(C)(=O)=O)cccc21 (single isomer, unassigned) [Compound 5]
assaySystem: full-length human Mineralocorticoid Receptor (MR) (Homo sapiens)
unitsText: nM
IC50: 8
//
compound: CCC(O)C(CC)(c1ccc(C(F)(F)F)cc1)n1ncc2c(NS(C)(=O)=O)cc(F)cc21 (single isomer, unassigned) [Compound 18]
assaySystem: full-length human Mineralocorticoid Receptor (MR) (Homo sapiens)
unitsText: nM
IC50: 9
//
compound: CCC(O)C(CC)(c1ccc(C(F)(F)F)cc1)n1ncc2c(NS(C)(=O)=O)cc(F)cc21 (single isomer, unassigned) [Compound 17]
assaySystem: full-length human Mineralocorticoid Receptor (MR) (Homo sapiens)
unitsText: nM
IC50: 21
//
compound: CCS(=O)(=O)Nc1cccc2c1cnn2C(CC(F)F)(c1ccc(C(F)(F)F)cc1)C(C)O (single isomer, unassigned) [Compound 58]
assaySystem: full-length human Mineralocorticoid Receptor (MR) (Homo sapiens)
unitsText: nM
IC50: 38
//
compound: CCC(c1ccc(C#N)cc1)(C(C)O)n1ncc2c(NS(C)(=O)=O)cccc21 (single isomer, unassigned)
assaySystem: full-length human Mineralocorticoid Receptor (MR) (Homo sapiens)
unitsText: nM
IC50: 225
//
compound: CCC(c1ccc(C(F)(F)F)cc1)(C(C)O)n1ncc2c(NS(C)(=O)=O)cc(F)cc21 (single isomer, unassigned) [Compound 32]
assaySystem: full-length human Mineralocorticoid Receptor (MR) (Homo sapiens)
unitsText: nM
IC50: 27
//
compound: CCC(c1ccc(C(F)(F)F)cc1)(C(C)O)n1ncc2c(NS(C)(=O)=O)cc(F)cc21 (single isomer, unassigned) [Compound 31]
assaySystem: full-length human Mineralocorticoid Receptor (MR) (Homo sapiens)
unitsText: nM
IC50: 51
//
compound: CCC(O)C(CC)(c1ccc(S(F)(F)(F)(F)F)cc1)n1ncc2c(NS(C)(=O)=O)cccc21 (single isomer, unassigned) [Compound 26]
assaySystem: full-length human Mineralocorticoid Receptor (MR) (Homo sapiens)
unitsText: nM
IC50: 1130
//
compound: CCC(O)C(CC)(c1ccc(Br)cc1)n1ncc2c(NS(C)(=O)=O)cccc21 (single isomer, unassigned) [Compound 7]
assaySystem: full-length human Mineralocorticoid Receptor (MR) (Homo sapiens)
unitsText: nM
IC50: 1990
//
compound: CCC(O)C(CC)(c1ccc(C#N)cc1)n1ncc2c(NS(C)(=O)=O)cc(F)cc21 (single isomer, unassigned) [Compound 20]
assaySystem: full-length human Mineralocorticoid Receptor (MR) (Homo sapiens)
unitsText: nM
IC50: 138

* * *

# assayText: Hepatocyte stability, human
# Type: in vitro ADME
# measurementContext: human, hepatocytes; read-out: Hepatocyte Stability (t1/2)
Below, each of the molecules is paired with its reported half-life value.

molecule: CCC(c1ccc(C(F)(F)F)cc1)(C(O)C(F)F)n1ncc2c(NS(C)(=O)=O)cccc21 (single isomer, unassigned) [Compound 47]
half-life: > 1.5 h
//
molecule: CCC(c1ccc(C(F)(F)F)cc1)(C(C)O)n1ncc2c(NS(C)(=O)=O)cc(F)cc21 (single isomer, unassigned) [Compound 31]
half-life: 1.5 h
//
molecule: CS(=O)(=O)Nc1cccc2c1cnn2C(CC(F)F)(C(N)=O)c1ccc(C(F)(F)F)cc1 (single isomer, unassigned) [Compound 46]
half-life: > 1.5 h
//
molecule: CCC(O)C(CC)(c1ccc(C(F)(F)F)cc1)n1ncc2c(NS(C)(=O)=O)cccc21 (single isomer, unassigned) [Compound 9]
half-life: > 1.5 h
//
molecule: CC(O)C(CC(F)F)(c1ccc(C(F)(F)F)cc1)n1ncc2c(NS(C)(=O)=O)cccc21 (single isomer, unassigned) [Compound 37]
half-life: > 1.5 h
